Give melting point for every item shown.

Prompt: # input compound: `O=[N+]([O-])c1c(OS(=O)(=O)C(F)(F)F)nc2ccccc2c1OS(=O)(=O)C(F)(F)F` ; wanted: its melting point
Response: 74.5 to 76 °C

Prompt: What do we get for O=C(Nc1nnn[nH]1)c1c[nH]c(=S)n1C1CCc2c(F)cc(F)cc2C1 (stereo not given) ?
Response: 228 to 230 °C

Prompt: What do we get for `CC(C)(C)c1nc(-c2ccc3c(c2)OCO3)[nH]c1C(C)(C)C` ?
Response: 175 to 178 °C

Prompt: What do we get for `COc1cccc(CCc2c(CC(=O)NC(C)C)ccc(OC)c2OC)c1` ?
Response: 138 to 140 °C

Prompt: What do we get for COc1cccc(CS(=O)c2nc3cnccc3[nH]2)c1 (stereo not given) ?
Response: 176 to 179 °C
